# STUDY_TARGET: E-selectin (Homo sapiens, UniProt P16581)
# Sequence (P16581 22-556 limits assumed): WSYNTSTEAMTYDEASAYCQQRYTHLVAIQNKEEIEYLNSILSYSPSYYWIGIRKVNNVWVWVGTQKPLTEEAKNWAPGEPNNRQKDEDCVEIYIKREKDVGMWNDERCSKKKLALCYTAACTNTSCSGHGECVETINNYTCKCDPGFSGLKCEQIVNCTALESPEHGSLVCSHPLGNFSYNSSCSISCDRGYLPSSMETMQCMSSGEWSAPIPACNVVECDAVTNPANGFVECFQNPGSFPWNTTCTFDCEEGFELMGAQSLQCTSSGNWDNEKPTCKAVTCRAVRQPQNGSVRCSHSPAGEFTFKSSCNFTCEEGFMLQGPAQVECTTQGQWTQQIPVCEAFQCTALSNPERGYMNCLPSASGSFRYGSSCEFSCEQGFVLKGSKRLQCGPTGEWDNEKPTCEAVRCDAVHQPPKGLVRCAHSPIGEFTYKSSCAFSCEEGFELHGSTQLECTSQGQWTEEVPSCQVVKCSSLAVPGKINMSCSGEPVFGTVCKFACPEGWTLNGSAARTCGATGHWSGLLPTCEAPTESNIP
# PROCEDURE_DETAILS: Inhibition of HL-60 adhesion to recombinant soluble E-selectin coated plates (competitive inhibition assay)
# Assay type: binding
# COND: Esbp monomer, FIG. 7A; read-out: IC50
Ends that are not written are not given here.
PROPERTY_MEASURED: IC50 (µM)
Expressed in µM, but write only the number.

Ask: Please report IC50 for the following sequence: DITWDQLWDLMK [Esbp, reference compound]
Reply: 10
